assayed target: Receptor-interacting serine/threonine-protein kinase 2 (Homo sapiens, UniProt O43353)
Sequence (O43353 whole entry): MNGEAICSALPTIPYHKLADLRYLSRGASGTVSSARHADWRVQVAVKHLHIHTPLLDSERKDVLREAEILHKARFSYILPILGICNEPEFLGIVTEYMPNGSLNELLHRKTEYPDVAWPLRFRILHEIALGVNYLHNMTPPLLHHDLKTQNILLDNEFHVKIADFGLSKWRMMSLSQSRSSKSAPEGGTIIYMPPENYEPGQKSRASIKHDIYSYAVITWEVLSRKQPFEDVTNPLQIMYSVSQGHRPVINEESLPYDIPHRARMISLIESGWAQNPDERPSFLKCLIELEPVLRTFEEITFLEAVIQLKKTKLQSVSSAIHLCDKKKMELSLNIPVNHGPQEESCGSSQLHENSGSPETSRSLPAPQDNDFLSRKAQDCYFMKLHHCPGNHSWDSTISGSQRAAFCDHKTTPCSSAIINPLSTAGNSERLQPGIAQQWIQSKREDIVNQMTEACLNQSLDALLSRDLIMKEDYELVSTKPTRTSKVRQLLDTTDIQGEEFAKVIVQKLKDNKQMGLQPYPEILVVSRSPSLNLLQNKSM
assay protocol: Inhibition of RIP2 (unknown origin)
assay endpoint: pIC50
# pIC50 = -log10(concentration in molar units)

# input Name the recorded pIC50 of the item c1ccc(-c2ccc3c(Nc4ccc5scnc5c4)ccnc3c2)cc1 in your answer.
# output 7.80

# input Supply reported pIC50 belonging to this compound: Oc1cc(Nc2ccnc3cc(-c4ccccc4)ccc23)ccc1Cl
# output 8.22

====

assayed target: Receptor-interacting serine/threonine-protein kinase 2 (Homo sapiens, UniProt O43353)
assay protocol: Inhibition of RIP2 (unknown origin) by fluorescence polarization based binding assay
pIC50: −log10 of the molar value.
assay endpoint: pIC50

# input Identify measured pIC50 corresponding to COCCNC(=O)c1cc(CNc2ccc(Cl)c(O)c2)cc(-c2ccc3c(Cl)ccnc3c2)c1
# output < 4.30

====

assayed target: Receptor-interacting serine/threonine-protein kinase 2 (Homo sapiens, UniProt O43353)
assay protocol: Inhibition of RIP2 (unknown origin) by biochemical assay
assay endpoint: IC50 (nM)
Value expressed in nM; do not type the unit.

# input Give the reported value of IC50 for this record: COCCNC(=O)c1cc(CNc2ccc(Cl)c(O)c2)cc(-c2ccc3c(Nc4ccc(Cl)c(O)c4)ccnc3c2)c1
# output 6

Each recorded value in this set is attributed to ChEMBL document CHEMBL4828713.
